# System: HIV-1 (IIIB strain)
# RUN_DESCRIPTION: MT-4 antiviral cytoprotection assay, five-day multi-cycle, wild type HIV-1
# Format: cell-based
# ASSAY_CONTEXT: Human immunodeficiency virus 1, IIIB, MT4, read-out: EC50 w.t.
Class (required): determined from EC50; valid ranges are bucket A: < 0.007 µM; bucket B: ≥ 0.007 µM and < 0.05 µM; bucket C: ≥ 0.05 µM

Solved cases below.
COc1cc(Oc2c(F)cc(F)cc2F)nc(Nc2ccc(C#N)cc2)n1 [Compound 32] | bucket C
COc1cc(F)c(C(=O)c2nc(N)cc(Nc3ccc(C#N)cc3)n2)c(F)c1 [Compound 11] | bucket C
COc1cc(F)c(C(=O)c2cc(N)nc(Nc3ccc(C#N)cc3)n2)c(F)c1 [Compound 13] | bucket A
COc1cc(F)c(Oc2cc(N)nc(Nc3ccc(C#N)cc3)n2)c(F)c1 [Compound 35] | bucket A
N#Cc1ccc(Nc2nc(N)cc(Nc3c(F)cc(F)cc3F)n2)cc1 [Compound 38] | bucket B

Please report the category associated with Cc1cc(C#N)cc(C)c1Oc1nc(Nc2ccc(C#N)cc2)nc(N)c1Br [ETR, etravirine, reference compound] , nothing else.
bucket A

What about this compound? COc1cc(F)c(Oc2cc(Cl)nc(Nc3ccc(C#N)cc3)n2)c(F)c1 [Compound 27]
bucket B
